subject_of_test: Polyunsaturated fatty acid lipoxygenase ALOX12 (Homo sapiens) (UniProt P18054)
Sequence (whole entry): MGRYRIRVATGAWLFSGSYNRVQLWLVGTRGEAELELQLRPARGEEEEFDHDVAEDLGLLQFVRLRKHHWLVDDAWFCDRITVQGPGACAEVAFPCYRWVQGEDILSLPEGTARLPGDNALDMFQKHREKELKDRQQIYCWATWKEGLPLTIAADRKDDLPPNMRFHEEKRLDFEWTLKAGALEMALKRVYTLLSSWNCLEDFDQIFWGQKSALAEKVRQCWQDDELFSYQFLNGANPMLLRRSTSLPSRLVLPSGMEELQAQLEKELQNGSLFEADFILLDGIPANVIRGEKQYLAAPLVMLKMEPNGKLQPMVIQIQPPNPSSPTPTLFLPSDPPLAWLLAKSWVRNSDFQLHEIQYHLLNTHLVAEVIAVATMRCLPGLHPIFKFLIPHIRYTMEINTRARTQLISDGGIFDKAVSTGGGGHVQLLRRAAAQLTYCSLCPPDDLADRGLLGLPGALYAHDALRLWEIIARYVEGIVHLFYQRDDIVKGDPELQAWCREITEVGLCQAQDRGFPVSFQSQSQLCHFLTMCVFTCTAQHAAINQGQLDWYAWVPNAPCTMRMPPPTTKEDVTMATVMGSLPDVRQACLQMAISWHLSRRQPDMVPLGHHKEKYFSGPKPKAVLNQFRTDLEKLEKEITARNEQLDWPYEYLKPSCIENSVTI
experimental_details: Inhibition of LOX12 from human platelets at 10 uM by enzyme immuno assay
measurement_type: inhibition (%)

Reference set (2 entries):
| molecule | output_unit | inhibition |
| --- | --- | --- |
| CS(=O)(=O)c1ccc(C2=C(c3ccccc3)C(=O)OC2)cc1 | % | -2 |
| Cc1ccc(-c2cc(C(F)(F)F)nn2-c2ccc(S(N)(=O)=O)cc2)cc1 | % | 7 |

A. NS(=O)(=O)c1ccc(N2N=C(C(F)(F)F)CC2c2c[nH]c3ccccc23)cc1 (stereo in doubt; 5a)
B. NS(=O)(=O)c1ccc(N2N=C(C(F)(F)F)CC2c2c[nH]c3cc(Cl)ccc23)cc1 (stereo not given)
C. NS(=O)(=O)c1ccc(N2N=C(C(F)(F)F)CC2c2c[nH]c3c(Cl)cccc23)cc1 (stereo in doubt; 5f)
Please produce an ascending ranking of these molecules based on inhibition. Quick reminder: the answer is the labels in the order asked. B, C, A
(B: -2%, C: 3%, A: 5%)

====

Organism: Ovis aries
experimental_details: Selectivity ratio of IC50 for ovine COX1 to IC50 for ovine COX2
measurement_type: Ratio IC50

Reference set (7 entries):
| compound | Ratio IC50 |
| --- | --- |
| NS(=O)(=O)c1ccc(N2N=C(C(F)(F)F)CC2c2c[nH]c3cc(F)ccc23)cc1 (configuration not stated) | 0 |
| Nc1ccc2c(C3CC(C(F)(F)F)=NN3c3ccc(S(N)(=O)=O)cc3)c[nH]c2c1 (configuration not stated) | 14 |
| N#Cc1ccc2c(C3CC(C(F)(F)F)=NN3c3ccc(S(N)(=O)=O)cc3)c[nH]c2c1 (configuration not stated) | 0 |
| NS(=O)(=O)c1ccc(N2N=C(C(F)(F)F)CC2c2c[nH]c3cc([N+](=O)[O-])ccc23)cc1 (configuration not stated) | 0 |
| Nc1cccc2[nH]cc(C3CC(C(F)(F)F)=NN3c3ccc(S(N)(=O)=O)cc3)c12 (configuration not stated) | 0 |
| N#Cc1ccc2[nH]cc(C3CC(C(F)(F)F)=NN3c3ccc(S(N)(=O)=O)cc3)c2c1 (configuration not stated) | 0 |
| NS(=O)(=O)c1ccc(N2N=C(C(F)(F)F)CC2c2c[nH]c3ccc(C(=O)O)cc23)cc1 (configuration not stated) | 0 |

a. NS(=O)(=O)c1ccc(N2N=C(C(F)(F)F)CC2c2c[nH]c3cc(Cl)ccc23)cc1 (configuration not stated)
b. COc1cccc2[nH]cc(C3CC(C(F)(F)F)=NN3c3ccc(S(N)(=O)=O)cc3)c12 (configuration not stated)
Choose between a and b : whose measured Ratio IC50 value is numerically larger? Answer format: the label of the selected item. b
(b: 12, a: 0)

====

Species: Ovis aries
experimental_details: Selectivity ratio of IC50 for ovine COX1 to IC50 for ovine COX2
measurement_type: Ratio IC50

Reference set (3 entries):
| molecule | Ratio IC50 |
| --- | --- |
| NS(=O)(=O)c1ccc(N2N=C(C(F)(F)F)CC2c2c[nH]c3c(Cl)cccc23)cc1 (single isomer, unassigned; enantiomer 2) | > 1 |
| NS(=O)(=O)c1ccc(N2N=C(C(F)(F)F)CC2c2c[nH]c3ccccc23)cc1 (single isomer, unassigned; enantiomer 2) | > 8 |
| NS(=O)(=O)c1ccc(N2N=C(C(F)(F)F)CC2c2c[nH]c3c([N+](=O)[O-])cccc23)cc1 (centres undefined) | 0 |

Next, consider the following molecule.
// lookup Ratio IC50 for NS(=O)(=O)c1ccc(N2N=C(C(F)(F)F)CC2c2c[nH]c3c(Cl)cccc23)cc1 (stereo in doubt; 5f) > 26

====

Attribute: Ratio IC50
Species: Ovis aries
experimental_details: Selectivity ratio of IC50 for ovine COX1 to IC50 for ovine COX2

// lookup Ratio IC50 for NS(=O)(=O)c1ccc(N2N=C(C(F)(F)F)CC2c2c[nH]c3ccc(F)cc23)cc1 (stereo not drawn) > 8

====

Attribute: Ratio IC50
Species on record: Ovis aries
experimental_details: Selectivity ratio of IC50 for ovine COX1 to IC50 for ovine COX2

// lookup Ratio IC50 for NS(=O)(=O)c1ccc(N2N=C(C(F)(F)F)CC2c2c[nH]c3ccc(Cl)cc23)cc1 (configuration not stated) > 3

// lookup Ratio IC50 for NS(=O)(=O)c1ccc(N2N=C(C(F)(F)F)CC2c2c[nH]c3cc(Br)ccc23)cc1 (configuration not stated) > 23

// lookup Ratio IC50 for Cc1[nH]c2cc(Cl)ccc2c1C1CC(C(F)(F)F)=NN1c1ccc(S(N)(=O)=O)cc1 (configuration not stated) > 17

====

Attribute: Ratio IC50
Species: Ovis aries
experimental_details: Selectivity ratio of IC50 for ovine COX1 to IC50 for ovine COX2

Reference set (3 entries):
| compound | data_value |
| --- | --- |
| Nc1ccc2[nH]cc(C3CC(C(F)(F)F)=NN3c3ccc(S(N)(=O)=O)cc3)c2c1 (centres undefined) | > 118 |
| NS(=O)(=O)c1ccc(N2N=C(C(F)(F)F)CC2c2c[nH]c3ccccc23)cc1 (single isomer, unassigned; enantiomer 1) | > 119 |
| NS(=O)(=O)c1ccc(N2N=C(C(F)(F)F)CC2c2c[nH]c3c(Cl)cccc23)cc1 (single isomer, unassigned; enantiomer 1) | > 345 |

Next, consider the following compound.
// lookup Ratio IC50 for Nc1cccc2c(C3CC(C(F)(F)F)=NN3c3ccc(S(N)(=O)=O)cc3)c[nH]c12 (centres undefined) > 42
